target: proteasome from pituitary tissue (X/Y/Z isoform, constitutive proteasome), chymotrypsin-like (ChT-L) activity (Bos taurus); construct: the proteasome from pituitary tissue, representative of the X/Y/Z isoform; from tissue; host or cells: pituitary; test: Inhibition of ChT-L activity of pituitary proteasome (constitutive proteasome); format: biochemical; details: substrate Cbz-GGF-pAB, Dixon plots, without preincubation; read-out: Ki (μM) Pituitary Proteasome, ChT-L component
Peptide text beside a SMILES is read from it. * marks the point of attachment. Cbz = O=C(OCc1ccccc1)*
READOUT KIND: Ki (µM)
Give the number; µM is assumed, so skip it.

// worked examples, Ki included
May I ask what Ki has been recorded for O=CC(Cc1ccccc1)NC(=O)C(Cc1ccccc1)NC(=O)C1CCCN1C(=O)CNC(=O)OCc1ccccc1 (stereo not drawn) [Cbz-GPFF-CHO] (Cbz-GPFF-aldehyde; configuration not given here) ?
58

May I ask what Ki has been recorded for CC(NC(=O)C1CCCN1C(=O)CNC(=O)OCc1ccccc1)C(=O)NC(C=O)Cc1ccccc1 (stereo not drawn) [Cbz-GPAF-CHO] (Cbz-GPAF-aldehyde; configuration not given here) ?
460

More entries:
May I ask what Ki has been recorded for CC(C)CC(NC(=O)OCc1ccccc1)C(=O)NC(CC(C)C)C(=O)NC(C=O)Cc1ccccc1 (stereo not drawn) [Cbz-LLF-CHO] (Cbz-Leu-Leu-Phe-aldehyde; configuration not given here) ?
1.6

====

Target: proteasome from spleen tissue (LMP-2/7/10 isoform, immunoproteasome), chymotrypsin-like (ChT-L) activity (UniProt Q3T112)
Construct: Ki (μM) Spleen Proteasome, ChT-L component; other: substrate Cbz-GGF-pAB, Dixon plots, without preincubation; other: substrate Cbz-GGF-pAB
Sequence (Q3T112 1-276): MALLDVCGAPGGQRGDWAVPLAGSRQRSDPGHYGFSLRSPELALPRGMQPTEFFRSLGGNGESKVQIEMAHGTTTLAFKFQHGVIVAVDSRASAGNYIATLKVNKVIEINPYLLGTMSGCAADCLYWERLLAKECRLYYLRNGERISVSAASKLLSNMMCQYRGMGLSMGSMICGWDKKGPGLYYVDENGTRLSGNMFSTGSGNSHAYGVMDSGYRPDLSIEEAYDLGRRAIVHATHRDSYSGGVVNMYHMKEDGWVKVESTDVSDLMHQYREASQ
Test: Inhibition of ChT-L activity of spleen proteasome (immunoproteasome)
Format: biochemical
Settings: substrate Cbz-GGF-pAB; read-out: IC50 instead of Ki (†), Spleen Proteasome, ChT-L component
READOUT KIND: IC50 (µM)
Give the number; µM is assumed, so skip it.

May I ask what IC50 has been recorded for CC(NC(=O)OCc1ccccc1)C(=O)NC(C=O)Cc1ccccc1 (stereo not shown) [Cbz-AF-CHO, N-carbobenzyloxy-alanyl-phenylalanylal] ?
24

====

biological target: proteasome from pituitary tissue (X/Y/Z isoform, constitutive proteasome), chymotrypsin-like (ChT-L) activity (Bos taurus, UniProt Q32KL2); construct: the proteasome from pituitary tissue, representative of the X/Y/Z isoform; test: Inhibition of ChT-L activity of pituitary proteasome (constitutive proteasome); conditions: substrate Cbz-GGF-pAB; read-out: IC50 instead of Ki (†), Pituitary Proteasome, ChT-L component
Square brackets hold non-standard residues; d marks the D form. Peptide text beside a SMILES is read from it. * marks the point of attachment. hPhe = N[CH](CCc1ccccc1)C(=O)O; Cbz = O=C(OCc1ccccc1)*
The following compounds are shown together with reported pIC50 values.
Scale: pIC50 equals -log10([C]), with [C] in mol/L.

// worked examples, pIC50 included
May I ask what pIC50 has been recorded for CC(NC(=O)OCc1ccccc1)C(=O)NC(C=O)Cc1ccccc1 (stereo not shown) ?
3.42

May I ask what pIC50 has been recorded for O=CC(Cc1ccccc1)NC(=O)C(Cc1ccccc1)NC(=O)CNC(=O)OCc1ccccc1 (stereo not drawn) [Cbz-GFF-CHO] (Cbz-Gly-Phe-Phe-aldehyde; configuration not given here) ?
5.57

May I ask what pIC50 has been recorded for O=CC(Cc1ccccc1)NC(=O)C(CCc1ccccc1)NC(=O)OCc1ccccc1 (stereo not shown) [Cbz-hFF-CHO] (Cbz-[hPhe]-Phe-aldehyde; configuration not given here) ?
4.40

Lab note: next compound to report on.
May I ask what pIC50 has been recorded for CC(C)CC(NC(=O)OCc1ccccc1)C(=O)NC(C=O)Cc1ccccc1 (stereo not drawn) [Cbz-LF-CHO, N-carbobenzyloxy-leucyl-phenylalanylal] (Cbz-Leu-Phe-aldehyde; configuration not given here) ?
3.81

====

molecular target: proteasome from pituitary tissue (X/Y/Z isoform, constitutive proteasome), chymotrypsin-like (ChT-L) activity (Bos taurus); construct: the proteasome from pituitary tissue, representative of the X/Y/Z isoform; from tissue; host or cells: pituitary; experiment: Inhibition of ChT-L activity of pituitary proteasome (constitutive proteasome); format: biochemical; conditions: substrate Cbz-GGF-pAB, Dixon plots, without preincubation; read-out: Ki (μM) Pituitary Proteasome, ChT-L component
Peptide text beside a SMILES is read from it. * marks the point of attachment. Cbz = O=C(OCc1ccccc1)*
The following compounds are shown together with reported log10(Ki) values.
Record value = log10 of Ki given in µM.

// worked examples, log10(Ki) included
May I ask what log10(Ki) has been recorded for CC(C)CC(C=O)NC(=O)C(C)NC(=O)C(CC(C)C)NC(=O)OCc1ccccc1 (stereo not drawn) [Cbz-LAL-CHO, reference compound] (Cbz-Leu-Ala-Leu-aldehyde; configuration not given here) ?
-0.09

May I ask what log10(Ki) has been recorded for O=CC(Cc1ccccc1)NC(=O)C(Cc1ccccc1)NC(=O)OCc1ccccc1 (stereo not drawn) [Cbz-FF-CHO] (Cbz-Phe-Phe-aldehyde; configuration not given here) ?
1.75

May I ask what log10(Ki) has been recorded for CC(C)C[C@@H](C=O)NC(=O)[C@H](CC(C)C)NC(=O)[C@H](CC(C)C)NC(=O)OCc1ccccc1 [Cbz-LLL-CHO, reference compound] (Cbz-Leu-Leu-Leu-aldehyde) ?
0.84

May I ask what log10(Ki) has been recorded for CC(C)CC(C=O)NC(=O)C(Cc1ccccc1)NC(=O)OCc1ccccc1 (stereo not drawn) [Cbz-FL-CHO, reference compound] (Cbz-Phe-Leu-aldehyde; configuration not given here) ?
0.74

Lab note: next compound to report on.
May I ask what log10(Ki) has been recorded for CCCCC(C=O)NC(=O)C(CC(C)C)NC(=O)OCc1ccccc1 (centres unmarked) ?
2.02

====

target: proteasome from spleen tissue (LMP-2/7/10 isoform, immunoproteasome), chymotrypsin-like (ChT-L) activity; construct: Ki (μM) Spleen Proteasome, ChT-L component; other: substrate Cbz-GGF-pAB, Dixon plots, without preincubation; other: substrate Cbz-GGF-pAB; test: Inhibition of ChT-L activity of spleen proteasome (immunoproteasome); type: biochemical; conditions: read-out: Ki (μM) Spleen Proteasome, ChT-L component; substrate Cbz-GGF-pAB, Dixon plots, without preincubation
Peptide text beside a SMILES is read from it. * marks the point of attachment. Cbz = O=C(OCc1ccccc1)*
The following molecules are shown together with reported Ki values.
Respond with the figure and its unit, in that order.

// worked examples, Ki included
May I ask what Ki has been recorded for CC(NC(=O)C1CCCN1C(=O)CNC(=O)OCc1ccccc1)C(=O)NC(C=O)Cc1ccccc1 (stereo not drawn) [Cbz-GPAF-CHO] (Cbz-GPAF-aldehyde; configuration not given here) ?
8.4 µM

May I ask what Ki has been recorded for CC(C)CC(NC(=O)OCc1ccccc1)C(=O)NC(CC(C)C)C(=O)NC(C=O)Cc1ccccc1 (stereo not drawn) [Cbz-LLF-CHO] (Cbz-Leu-Leu-Phe-aldehyde; configuration not given here) ?
5.97 µM

More entries:
May I ask what Ki has been recorded for O=CC(Cc1ccccc1)NC(=O)C(Cc1ccccc1)NC(=O)C1CCCN1C(=O)CNC(=O)OCc1ccccc1 (stereo not drawn) [Cbz-GPFF-CHO] (Cbz-GPFF-aldehyde; configuration not given here) ?
5.6 µM
